Data origin: patent US8563588B2

MEASURED_TARGET: Rat recombinant DYRK1A (Rattus norvegicus, UniProt Q63470)
ASSAY_NAME: Assaying of the kinase activity of DYRK1A (33P-ATP, myelin basic protein, P81 filter)
Format: biochemical
ASSAY_CONDITIONS: 15 μM ATP, 30° C., 30 min; read-out: IC50 DYRK1A
Each entry below carries its reported pIC50.
Quick note: pIC50 means taking -log10 of the concentration in moles per liter.

Request: Hello, please tell me recorded pIC50 for this one: CCNC1=N/C(=C\c2ccc3c(c2)OCO3)C(=O)N1 [FC090]
Response: 5.96

Request: Hello, please tell me recorded pIC50 for this one: CCOC(=O)CSC1=N/C(=C\c2ccc3c(c2)OCO3)C(=O)N1C [JR404]
Response: 5.24

Request: Hello, please tell me recorded pIC50 for this one: COc1cc(/C=C2\N=C(N)NC2=O)ccc1O [ST325]
Response: 6.77

Request: Hello, please tell me recorded pIC50 for this one: CN1C(=O)/C(=C/c2ccc3c(c2)OCO3)N=C1NCCO [MADE40]
Response: 6.14

Request: Hello, please tell me recorded pIC50 for this one: CCCNC1=N/C(=C\c2ccc3c(c2)OCO3)C(=O)N1 [FC126]
Response: 6.05

Request: Hello, please tell me recorded pIC50 for this one: CSC1=N/C(=C\c2ccc3c(c2)OCO3)C(=O)N1C [ST099]
Response: 5.17

Request: Hello, please tell me recorded pIC50 for this one: C=CCNC1=N/C(=C\c2ccc3c(c2)OCO3)C(=O)N1C [FCFD13]
Response: 5.80

Request: Hello, please tell me recorded pIC50 for this one: CC(C)SC1=N/C(=C\c2ccc3c(c2)OCO3)C(=O)N1C [ST097]
Response: 5.89

Request: Hello, please tell me recorded pIC50 for this one: O=C1NC(Nc2ccccc2)=N/C1=C\c1ccc2c(c1)OCO2 [MADE44]
Response: 7.15

Request: Hello, please tell me recorded pIC50 for this one: CCCCNC1=N/C(=C\c2ccc3c(c2)OCO3)C(=O)N1C [FCJR457]
Response: 5.74

Request: Hello, please tell me recorded pIC50 for this one: CN1C(=O)/C(=C/c2ccc3c(c2)OCO3)N=C1Nc1ccc2c(c1)OCO2 [MADE30]
Response: 6.43

====

MEASURED_TARGET: Rat recombinant DYRK1A (Rattus norvegicus, UniProt Q63470)
ASSAY_NAME: Assaying of the kinase activity of DYRK1A (33P-ATP, myelin basic protein, P81 filter)
Format: biochemical
ASSAY_CONDITIONS: 15 μM ATP, 30° C., 30 min; read-out: IC50 DYRK1A
MEASURE_NAME: log10 IC50 (log10 of the value in µM)
All values: log10 IC50 [µM].

// known answers, use as guide
- COMPOUND: "O=C1NC(NCC2CC2)=N/C1=C\\c1ccc2c(c1)OCO2"
  NUMERIC_READOUT: -0.30
- COMPOUND: "COCCNC1=N/C(=C\\c2ccc3c(c2)OCO3)C(=O)N1C"
  NUMERIC_READOUT: 0.08
- COMPOUND: "CN1C(=O)/C(=C/c2ccc3c(c2)OCO3)N=C1Nc1ccccc1 [MADE42]"
  NUMERIC_READOUT: -0.37
- COMPOUND: "CN1C(=O)/C(=C/c2ccc3c(c2)OCO3)N=C1SCc1ccccc1"
  NUMERIC_READOUT: 0.76
- COMPOUND: "CCCNC1=N/C(=C\\c2ccc3c(c2)OCO3)C(=O)N1C"
  NUMERIC_READOUT: 0.36

Request: Hello, please tell me recorded log10 IC50 for this one: "C=CCSC1=N/C(=C\c2ccc3c(c2)OCO3)C(=O)N1C"
Response: 0.53

Request: Hello, please tell me recorded log10 IC50 for this one: "CN1C(=O)/C(=C/c2ccc3c(c2)OCO3)N=C1Nc1ccc2c(c1)OCCO2"
Response: -0.72

Request: Hello, please tell me recorded log10 IC50 for this one: "COCCSC1=N/C(=C\c2ccc3c(c2)OCO3)C(=O)N1"
Response: -0.19

Request: Hello, please tell me recorded log10 IC50 for this one: "CCCCSC1=N/C(=C\c2ccc3c(c2)OCO3)C(=O)N1C"
Response: 0.36

Request: Hello, please tell me recorded log10 IC50 for this one: "CN1C(=O)/C(=C/c2ccc3c(c2)OCO3)N=C1NCc1ccc2c(c1)OCO2"
Response: 0.66

Request: Hello, please tell me recorded log10 IC50 for this one: "CCSC1=N/C(=C\c2ccc(O)c(OC)c2)C(=O)N1"
Response: 0.41

Request: Hello, please tell me recorded log10 IC50 for this one: "CC(C)CCNC1=N/C(=C\c2ccc3c(c2)OCO3)C(=O)N1C"
Response: 0.23

====

MEASURED_TARGET: Rat recombinant DYRK1A (Rattus norvegicus, UniProt Q63470)
ASSAY_NAME: Assaying of the kinase activity of DYRK1A (33P-ATP, myelin basic protein, P81 filter);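 further: GST fusion rat DYRK1A made in E. coli, scintillation counting of label bound to substrate, activity as percent of the inhibitor-free maximum after blank subtraction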
Assay type: biochemical
ASSAY_CONDITIONS: 15 μM ATP, 30° C., 30 min; read-out: IC50 DYRK1A
pIC50: −log10 of the molar value.
The label depends only on pIC50: condition met if it is at least 6, condition not met if it is smaller.

Request: Please indicate if the recorded pIC50 for "N#CCSC1=N/C(=C\c2ccc3c(c2)OCO3)C(=O)N1" meets or exceeds 6.
Response: condition met

====

MEASURED_TARGET: Rat recombinant DYRK1A (Rattus norvegicus)
ASSAY_NAME: Assaying of the kinase activity of DYRK1A (33P-ATP, myelin basic protein, P81 filter)
Assay type: biochemical
ASSAY_CONDITIONS: IC50 DYRK1A, 15 μM ATP, 30° C., 30 min
MEASURE_NAME: pIC50
Quick note: pIC50 means taking -log10 of the concentration in moles per liter.

Request: Look up and report measured pIC50 (Rat recombinant DYRK1A (Rattus norvegicus)) for the following compound: "CC(C)NC1=N/C(=C\c2ccc3c(c2)OCO3)C(=O)N1C"
Response: 5.89

====

MEASURED_TARGET: Rat recombinant DYRK1A (Rattus norvegicus)
ASSAY_NAME: Assaying of the kinase activity of DYRK1A (33P-ATP, myelin basic protein, P81 filter)
Type: biochemical
ASSAY_CONDITIONS: 15 μM ATP, 30° C., 30 min; read-out: IC50 DYRK1A
Each entry below carries its reported pIC50.
Quick note: pIC50 means taking -log10 of the concentration in moles per liter.

// known answers, use as guide
- STRUCTURE_SMILES: "CN1C(=O)/C(=C/c2ccc3c(c2)OCO3)N=C1Nc1cccc(CO)c1"
  pIC50: 6.64
- STRUCTURE_SMILES: "CN1C(=O)/C(=C/c2ccc3c(c2)OCO3)N=C1NCc1ccccc1"
  pIC50: 5.85
- STRUCTURE_SMILES: "O=C1NC(SCC2CC2)=N/C1=C\\c1ccc2c(c1)OCO2"
  pIC50: 6.30
- STRUCTURE_SMILES: "COC(CNC1=N/C(=C\\c2ccc3c(c2)OCO3)C(=O)N1C)OC"
  pIC50: 5.85

Request: Hello, please tell me recorded pIC50 for this one: "CN1C(=O)/C(=C/c2ccc3c(c2)OCO3)N=C1NCC1CC1"
Response: 6.01

====

MEASURED_TARGET: Rat recombinant DYRK1A (Rattus norvegicus)
ASSAY_NAME: Assaying of the kinase activity of DYRK1A (33P-ATP, myelin basic protein, P81 filter)
Type: biochemical
ASSAY_CONDITIONS: 15 μM ATP, 30° C., 30 min; read-out: IC50 DYRK1A
MEASURE_NAME: pIC50
Quick note: pIC50 means taking -log10 of the concentration in moles per liter.

- COMPOUND: "CN1C(=O)/C(=C/c2ccc3c(c2)OCO3)N=C1Nc1ccccc1O"
  MEASURED_TARGET: "Rat recombinant DYRK1A (Rattus norvegicus)"
  MEASURE_NAME: "pIC50"
  NUMERIC_READOUT: 6.16
- COMPOUND: "CN1C(=O)/C(=C/c2ccc3c(c2)OCO3)N=C1SCC#N"
  MEASURED_TARGET: "Rat recombinant DYRK1A (Rattus norvegicus)"
  MEASURE_NAME: "pIC50"
  NUMERIC_READOUT: 6.33
- COMPOUND: "CN1C(=O)/C(=C/c2ccc3c(c2)OCO3)N=C1c1ccc2c(c1)OCO2 [NL88A]"
  MEASURED_TARGET: "Rat recombinant DYRK1A (Rattus norvegicus)"
  MEASURE_NAME: "pIC50"
  NUMERIC_READOUT: 6.66
- COMPOUND: "CN1C(=O)/C(=C/c2ccc3c(c2)OCO3)N=C1Nc1ccccc1 [MADE32]"
  MEASURED_TARGET: "Rat recombinant DYRK1A (Rattus norvegicus)"
  MEASURE_NAME: "pIC50"
  NUMERIC_READOUT: 6.40
- COMPOUND: "CN1C(=O)/C(=C/c2ccc3c(c2)OCO3)N=C1c1ccccc1"
  MEASURED_TARGET: "Rat recombinant DYRK1A (Rattus norvegicus)"
  MEASURE_NAME: "pIC50"
  NUMERIC_READOUT: 5.49
- COMPOUND: "CCSC1=N/C(=C\\c2ccc3c(c2)OCO3)C(=O)N1"
  MEASURED_TARGET: "Rat recombinant DYRK1A (Rattus norvegicus)"
  MEASURE_NAME: "pIC50"
  NUMERIC_READOUT: 6.36
- COMPOUND: "CCCSC1=N/C(=C\\c2ccc3c(c2)OCO3)C(=O)N1"
  MEASURED_TARGET: "Rat recombinant DYRK1A (Rattus norvegicus)"
  MEASURE_NAME: "pIC50"
  NUMERIC_READOUT: 6.36
- COMPOUND: "C=CC(=O)NC1=N/C(=C\\c2ccc3c(c2)OCO3)C(=O)N1C"
  MEASURED_TARGET: "Rat recombinant DYRK1A (Rattus norvegicus)"
  MEASURE_NAME: "pIC50"
  NUMERIC_READOUT: 4.82
- COMPOUND: "CN1C(=O)/C(=C/c2ccc3c(c2)OCO3)N=C1Nc1ccc(O)c(C(=O)O)c1"
  MEASURED_TARGET: "Rat recombinant DYRK1A (Rattus norvegicus)"
  MEASURE_NAME: "pIC50"
  NUMERIC_READOUT: 6.03
- COMPOUND: "CCSC1=N/C(=C\\c2ccc3c(c2)OCO3)C(=O)N1C"
  MEASURED_TARGET: "Rat recombinant DYRK1A (Rattus norvegicus)"
  MEASURE_NAME: "pIC50"
  NUMERIC_READOUT: 5.85

Request: Hello, please tell me recorded pIC50 for this one: "CC(C)SC1=N/C(=C\c2ccc3c(c2)OCO3)C(=O)N1"
Response: 6.34

Request: Hello, please tell me recorded pIC50 for this one: "O=C1NC(=S)N/C1=C\c1ccc(O)c(O)c1"
Response: 4.18

Request: Hello, please tell me recorded pIC50 for this one: "CCCCSC1=N/C(=C\c2ccc3c(c2)OCO3)C(=O)N1"
Response: 6.23

Request: Hello, please tell me recorded pIC50 for this one: "CCCSC1=N/C(=C\c2ccc3c(c2)OCO3)C(=O)N1C"
Response: 5.74

Request: Hello, please tell me recorded pIC50 for this one: "O=C1NC(SCC2CCC2)=N/C1=C\c1ccc2c(c1)OCO2"
Response: 6.11

Request: Hello, please tell me recorded pIC50 for this one: "CN1C(=O)/C(=C/c2ccc3c(c2)OCO3)N=C1NCCCO"
Response: 5.89

Request: Hello, please tell me recorded pIC50 for this one: "CN1C(=O)/C(=C/c2ccc3c(c2)OCO3)N=C1SCC1CC1"
Response: 5.82

Request: Hello, please tell me recorded pIC50 for this one: "COc1cc(/C=C2\NC(=S)NC2=O)cc(Br)c1O"
Response: 4.19
